Target: Tyrosine-protein phosphatase non-receptor type 1 (Homo sapiens)
Test: Inhibition of GST-tagged human recombinant PTB1B using pNPP as substrate at 20 ug/ml after 3 mins
QUANTITY NAME: inhibition (%)

Would you please look over these solved cases?
Oc1ccc(Cc2ccc(O)c(O)c2)cc1O | 9.27
COc1cc(Br)c(C(=O)c2cc(OC)c(OC)c(Br)c2Br)cc1OC | 37.5
COc1c(Br)c(Br)c(C(=O)c2c(Br)c(Br)c(OC)c(OC)c2Br)c(Br)c1OC | 105
O=C(c1cc(O)c(O)c(Br)c1Br)c1cc(O)c(O)c(Br)c1Br | 20.3
COc1c(Br)c(Br)c(Cc2c(Br)c(Br)c(OC)c(OC)c2Br)c(Br)c1OC | 96.9

1: COc1cc(Cc2cc(OC)c(OC)c(Br)c2Br)c(Br)c(Br)c1OC
2: Oc1cc(Br)c(Cc2cc(O)c(O)cc2Br)cc1O
Field: entry with larger inhibition (options 1 / 2 ). Label of pick, please. 1
(1: 60.4%, 2: 20.9%)

P: COc1cc(Br)c(Cc2cc(OC)c(OC)c(Br)c2Br)cc1OC
Q: COc1ccc(Cc2cc(OC)c(OC)cc2Br)cc1OC
R: COc1cc(Cc2c(Br)c(Br)c(OC)c(OC)c2Br)c(Br)c(Br)c1OC
Order the records by inhibition, with each subsequent value no larger than the one before. Quick reminder: the answer is the labels in the order asked. R, P, Q
(R: 98.7%, P: 52.5%, Q: 14.4%)
